# Kd listing for each entry below
molecular target: T1, Human C3 (human, UniProt P01024 23-1663); test: SPR, C3 immobilised
T1 construct: In SPR the bought human C3 was immobilised on CM5 chips by amine coupling; In the haemolysis assay the C3 is that of diluted human serum; also called complement C3
T1 sequence (P01024 23-1663 limits assumed): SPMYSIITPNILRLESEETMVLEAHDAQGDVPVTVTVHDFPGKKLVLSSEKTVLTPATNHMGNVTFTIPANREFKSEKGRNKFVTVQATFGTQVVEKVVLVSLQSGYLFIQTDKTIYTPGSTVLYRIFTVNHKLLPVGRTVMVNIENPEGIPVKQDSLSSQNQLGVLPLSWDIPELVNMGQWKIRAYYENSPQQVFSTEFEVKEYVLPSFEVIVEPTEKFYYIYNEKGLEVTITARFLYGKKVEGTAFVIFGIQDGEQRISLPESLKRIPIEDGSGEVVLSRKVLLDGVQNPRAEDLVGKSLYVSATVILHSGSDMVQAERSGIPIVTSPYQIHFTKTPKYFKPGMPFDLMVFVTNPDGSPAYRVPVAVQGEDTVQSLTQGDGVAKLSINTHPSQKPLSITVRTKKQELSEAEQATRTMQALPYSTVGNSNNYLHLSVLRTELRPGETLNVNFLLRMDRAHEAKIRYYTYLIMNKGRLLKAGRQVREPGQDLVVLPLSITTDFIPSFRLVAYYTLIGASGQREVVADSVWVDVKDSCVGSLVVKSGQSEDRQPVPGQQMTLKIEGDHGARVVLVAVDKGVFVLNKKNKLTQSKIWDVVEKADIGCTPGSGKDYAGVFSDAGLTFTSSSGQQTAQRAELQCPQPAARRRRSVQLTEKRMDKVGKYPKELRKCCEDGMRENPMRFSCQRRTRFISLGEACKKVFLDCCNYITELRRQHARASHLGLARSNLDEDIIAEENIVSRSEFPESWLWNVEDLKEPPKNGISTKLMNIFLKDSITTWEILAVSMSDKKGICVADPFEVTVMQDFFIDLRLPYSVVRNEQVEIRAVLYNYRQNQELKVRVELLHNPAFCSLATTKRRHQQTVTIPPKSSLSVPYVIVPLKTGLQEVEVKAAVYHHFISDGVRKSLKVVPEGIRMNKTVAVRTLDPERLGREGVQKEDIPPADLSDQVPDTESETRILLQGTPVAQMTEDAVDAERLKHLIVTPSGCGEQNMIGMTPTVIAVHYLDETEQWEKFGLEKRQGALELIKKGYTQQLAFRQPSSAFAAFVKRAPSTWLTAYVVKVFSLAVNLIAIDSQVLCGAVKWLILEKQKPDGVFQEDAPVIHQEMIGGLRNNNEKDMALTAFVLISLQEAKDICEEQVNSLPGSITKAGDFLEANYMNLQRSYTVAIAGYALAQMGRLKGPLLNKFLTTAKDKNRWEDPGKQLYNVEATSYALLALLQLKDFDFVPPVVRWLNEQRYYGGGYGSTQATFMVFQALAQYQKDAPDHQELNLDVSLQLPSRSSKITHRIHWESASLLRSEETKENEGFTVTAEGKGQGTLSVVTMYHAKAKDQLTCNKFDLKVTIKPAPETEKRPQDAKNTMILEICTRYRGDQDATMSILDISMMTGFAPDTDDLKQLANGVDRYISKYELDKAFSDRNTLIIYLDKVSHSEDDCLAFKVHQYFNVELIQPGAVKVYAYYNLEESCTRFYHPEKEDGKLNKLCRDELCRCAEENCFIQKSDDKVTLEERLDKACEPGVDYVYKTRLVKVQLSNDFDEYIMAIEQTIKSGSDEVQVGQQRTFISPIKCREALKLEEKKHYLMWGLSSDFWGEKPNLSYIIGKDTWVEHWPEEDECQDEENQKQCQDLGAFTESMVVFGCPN
Starred links: 1 amine or outer side, 2 acyl side, 3 side chain; linkers in the order of their positions; H or OH if unused. Positions of bridges follow the written chain, without caps; N, C: chain ends. Non-standard residues stand in square brackets, D forms with d. Groups on a side chain read outwards from the residue. *: point of attachment. Trp(1-Me) = Cn1cc(C[C@H](N)C(=O)O)c2ccccc21; C18 diacid = O=C(O)CCCCCCCCCCCCCCCCC(=O)*; γGlu = O=C(O)[C@H](CCC(=O)[*:2])N[*:1]; 1Nal = N[C@@H](Cc1cccc2ccccc12)C(=O)O; AEEA = NCCOCCOCC(=O)O; Sar = CNCC(=O)O
Write the answer as a number in nM, unit excluded.

Below: 5 binders and their reported Kd.
binder	measured result
Ac-SE[Sar]CI[Trp(1-Me)]QDWGEHRC[Sar]EA-NH2 (disulfide 4-14; SMILES CC[C@H](C)[C@@H]1NC(=O)[C@@H](NC(=O)CN(C)C(=O)[C@H](CCC(=O)O)NC(=O)[C@H](CO)NC(C)=O)CSSC[C@@H](C(=O)N(C)CC(=O)N[C@@H](CCC(=O)O)C(=O)N[C@@H](C)C(N)=O)NC(=O)[C@H](CCCNC(=N)N)NC(=O)[C@H](Cc2c[nH]cn2)NC(=O)[C@H](CCC(=O)O)NC(=O)CNC(=O)[C@H](Cc2c[nH]c3ccccc23)NC(=O)[C@H](CC(=O)O)NC(=O)[C@H](CCC(N)=O)NC(=O)[C@H](Cc2cn(C)c3ccccc23)NC1=O) [Compound 81]	9.7
Ac-SEFCI[Trp(1-Me)]QDWGEHRCTEGE[AEEA]ESK([γGlu-C18 diacid])-NH2 (disulfide 4-14) [Compound 142]	4.8
Ac-FCI[Trp(1-Me)]QDWGEHRCTGAES-NH2 (disulfide 2-12; SMILES CC[C@H](C)[C@@H]1NC(=O)[C@@H](NC(=O)[C@H](Cc2ccccc2)NC(C)=O)CSSC[C@@H](C(=O)N[C@H](C(=O)NCC(=O)N[C@@H](C)C(=O)N[C@@H](CCC(=O)O)C(=O)N[C@@H](CO)C(N)=O)[C@@H](C)O)NC(=O)[C@H](CCCNC(=N)N)NC(=O)[C@H](Cc2c[nH]cn2)NC(=O)[C@H](CCC(=O)O)NC(=O)CNC(=O)[C@H](Cc2c[nH]c3ccccc23)NC(=O)[C@H](CC(=O)O)NC(=O)[C@H](CCC(N)=O)NC(=O)[C@H](Cc2cn(C)c3ccccc23)NC1=O) [Compound 61]	0.33
Ac-EGSAICIWQDWGEHRC[Sar]E-NH2 (disulfide 6-16; SMILES CC[C@H](C)[C@H](NC(=O)[C@H](C)NC(=O)[C@H](CO)NC(=O)CNC(=O)[C@H](CCC(=O)O)NC(C)=O)C(=O)N[C@H]1CSSC[C@@H](C(=O)N(C)CC(=O)N[C@@H](CCC(=O)O)C(N)=O)NC(=O)[C@H](CCCNC(=N)N)NC(=O)[C@H](Cc2c[nH]cn2)NC(=O)[C@H](CCC(=O)O)NC(=O)CNC(=O)[C@H](Cc2c[nH]c3ccccc23)NC(=O)[C@H](CC(=O)O)NC(=O)[C@H](CCC(N)=O)NC(=O)[C@H](Cc2c[nH]c3ccccc23)NC(=O)[C@H]([C@@H](C)CC)NC1=O) [Compound 28]	44
Ac-FCI[1Nal]QDWGEHRCTGAES-NH2 (disulfide 2-12; SMILES CC[C@H](C)[C@@H]1NC(=O)[C@@H](NC(=O)[C@H](Cc2ccccc2)NC(C)=O)CSSC[C@@H](C(=O)N[C@H](C(=O)NCC(=O)N[C@@H](C)C(=O)N[C@@H](CCC(=O)O)C(=O)N[C@@H](CO)C(N)=O)[C@@H](C)O)NC(=O)[C@H](CCCNC(=N)N)NC(=O)[C@H](Cc2c[nH]cn2)NC(=O)[C@H](CCC(=O)O)NC(=O)CNC(=O)[C@H](Cc2c[nH]c3ccccc23)NC(=O)[C@H](CC(=O)O)NC(=O)[C@H](CCC(N)=O)NC(=O)[C@H](Cc2cccc3ccccc23)NC1=O) [Compound 63]	4.3

Quick one: Kd for Ac-SEFCI[Trp(1-Me)]QDWGEHRC[Sar]EGE[AEEA]ESK([γGlu-γGlu-C18 diacid])-NH2 (disulfide 4-14) [Compound 140] ?
7.6

So what's the measured Kd for this one? Ac-FCIWQDWGEHRCT-NH2 (disulfide 2-12; SMILES CC[C@H](C)[C@@H]1NC(=O)[C@@H](NC(=O)[C@H](Cc2ccccc2)NC(C)=O)CSSC[C@@H](C(=O)N[C@H](C(N)=O)[C@@H](C)O)NC(=O)[C@H](CCCNC(=N)N)NC(=O)[C@H](Cc2c[nH]cn2)NC(=O)[C@H](CCC(=O)O)NC(=O)CNC(=O)[C@H](Cc2c[nH]c3ccccc23)NC(=O)[C@H](CC(=O)O)NC(=O)[C@H](CCC(N)=O)NC(=O)[C@H](Cc2c[nH]c3ccccc23)NC1=O) [Compound 23]
2.8

# input binder: Ac-SEFCI[Trp(1-Me)]QDWGEHKC[Sar]EA-NH2 (disulfide 4-14; SMILES CC[C@H](C)[C@@H]1NC(=O)[C@@H](NC(=O)[C@H](Cc2ccccc2)NC(=O)[C@H](CCC(=O)O)NC(=O)[C@H](CO)NC(C)=O)CSSC[C@@H](C(=O)N(C)CC(=O)N[C@@H](CCC(=O)O)C(=O)N[C@@H](C)C(N)=O)NC(=O)[C@H](CCCCN)NC(=O)[C@H](Cc2c[nH]cn2)NC(=O)[C@H](CCC(=O)O)NC(=O)CNC(=O)[C@H](Cc2c[nH]c3ccccc23)NC(=O)[C@H](CC(=O)O)NC(=O)[C@H](CCC(N)=O)NC(=O)[C@H](Cc2cn(C)c3ccccc23)NC1=O) [Compound 86] ; wanted: its Kd
2.6

From: patent US20220306695A1
